system: Rattus norvegicus; assay: Effective dose against DOPA accumulation in rat brain striatal region after no pretreatment by subcutaneous administration; format: functional; settings: sc
# ED50 values compiled below
Measurement kind: ED50 (mg/kg)

Test smiles	Tested system	Unit string	Numeric readout
CCCN(CCC)[C@@H]1CCc2c(O)cccc2[C@@H]1C.Cl	Rattus norvegicus	mg/kg	2.8
CCCN(CCC)[C@H]1CCc2c(O)cccc2[C@H]1C.Cl	Rattus norvegicus	mg/kg	0.25
O=C(CCCN1CCC(O)(c2ccc(Cl)cc2)CC1)c1ccc(F)cc1	Rattus norvegicus	mg/kg	0.07
CCCN(CCC)[C@@H]1CCc2c(OC)cccc2[C@@H]1C.Cl	Rattus norvegicus	mg/kg	3
